Origin of the recorded values: patent US20250099557A1

# Test system: intestinal flora
# experiment: Effects of administration routes on the diversity of intestinal flora in mice (16S rDNA sequencing, OTU)
# Type: in vivo
# condition_description: C57BL/6 mice, feces; oral administration for five consecutive days; D6
endpoint_name: Relative abundance of OUT (operational taxonomic units) (%)

{"molecule": "C[C@@H](O)[C@H]1C(=O)N2C(C(=O)O)=C(S[C@@H]3CN[C@H](C(=O)Nc4cccc(C(=O)O)c4)C3)[C@H](C)[C@H]12 [Ertapenem]", "target_under_test": "intestinal flora", "reported_measurement": 15.3}
{"molecule": "CO/N=C(\\C(=O)N[C@@H]1C(=O)N2C(C(=O)O)=C(CSc3nc(=O)c(=O)[nH]n3C)CS[C@H]12)c1csc(N)n1 [Ceftriaxone]", "target_under_test": "intestinal flora", "reported_measurement": 18.3}
{"molecule": "CC1=C(C(=O)O)N2C(=O)[C@@H](NC(=O)[C@H](N)C3=CCC=CC3)[C@H]2SC1 [Cefradine]", "target_under_test": "intestinal flora", "reported_measurement": 24.3}
{"molecule": "CC(C)(O/N=C(\\C(=O)N[C@@H]1C(=O)N2C(C(=O)[O-])=C(C[n+]3ccccc3)CS[C@H]12)c1csc(N)n1)C(=O)O [Ceftazidime]", "target_under_test": "intestinal flora", "reported_measurement": 22.3}

* * *

Listed below: Tmax values for each entry.
# experiment: in vivo
# condition_description: male, ICR, mouse, iv

{"compound_structure_string": "CC(C)(O/N=C(\\C(=O)N[C@@H]1C(=O)N2C(C(=O)[O-])=C(C[n+]3ccccc3)CS[C@H]12)c1csc(N)n1)C(=O)O", "Tmax / min": 5}
{"compound_structure_string": "CO/N=C(\\C(=O)N[C@@H]1C(=O)N2C(C(=O)O)=C(CSc3nc(=O)c(=O)[nH]n3C)CS[C@H]12)c1csc(N)n1", "Tmax / min": 5}

* * *

Recorded Relative abundance of OUT (operational taxonomic units) for the following molecules
# Test system: intestinal flora
# experiment: Effects of administration routes on the diversity of intestinal flora in mice (16S rDNA sequencing, OTU)
# Assay type: in vivo
# condition_description: C57BL/6 mice, feces; in combination with recombinant human HAase for subcutaneous administration, five consecutive days; D8
endpoint_name: Relative abundance of OUT (operational taxonomic units) (%)

{"molecule": "CC1=C(C(=O)O)N2C(=O)[C@@H](NC(=O)[C@H](N)C3=CCC=CC3)[C@H]2SC1 [Cefradine]", "reported_measurement": 42.1}
{"molecule": "CC(C)(O/N=C(\\C(=O)N[C@@H]1C(=O)N2C(C(=O)[O-])=C(C[n+]3ccccc3)CS[C@H]12)c1csc(N)n1)C(=O)O [Ceftazidime]", "reported_measurement": 41.6}
{"molecule": "C[C@@H](O)[C@H]1C(=O)N2C(C(=O)O)=C(S[C@@H]3CN[C@H](C(=O)Nc4cccc(C(=O)O)c4)C3)[C@H](C)[C@H]12 [Ertapenem]", "reported_measurement": 36.8}
{"molecule": "CO/N=C(\\C(=O)N[C@@H]1C(=O)N2C(C(=O)O)=C(CSc3nc(=O)c(=O)[nH]n3C)CS[C@H]12)c1csc(N)n1 [Ceftriaxone]", "reported_measurement": 37.9}

* * *

# experiment: Pharmacokinetics of model antibiotics in mice: tail vein injection vs subcutaneous administration combined with recombinant human HAase
# condition_description: male, ICR, mouse, blood, sc
endpoint_name: Tmax (min)

{"compound_structure_string": "C[C@@H](O)[C@H]1C(=O)N2C(C(=O)O)=C(S[C@@H]3CN[C@H](C(=O)Nc4cccc(C(=O)O)c4)C3)[C@H](C)[C@H]12", "reading_unit": "min", "reported_measurement": 15}

* * *

# System: intestinal flora
# experiment: Effects of administration routes on the diversity of intestinal flora in mice (16S rDNA sequencing, OTU)
# Format: in vivo
# condition_description: C57BL/6 mice, feces; oral administration for five consecutive days; D2
Recorded Relative abundance of OUT (operational taxonomic units) by entry
endpoint_name: Relative abundance of OUT (operational taxonomic units) (%)

{"compound": "C[C@@H](O)[C@H]1C(=O)N2C(C(=O)O)=C(S[C@@H]3CN[C@H](C(=O)Nc4cccc(C(=O)O)c4)C3)[C@H](C)[C@H]12 [Ertapenem]", "target_under_test": "intestinal flora", "reported_measurement": 13.1}
{"compound": "CC1=C(C(=O)O)N2C(=O)[C@@H](NC(=O)[C@H](N)C3=CCC=CC3)[C@H]2SC1 [Cefradine]", "target_under_test": "intestinal flora", "reported_measurement": 23.6}
{"compound": "CO/N=C(\\C(=O)N[C@@H]1C(=O)N2C(C(=O)O)=C(CSc3nc(=O)c(=O)[nH]n3C)CS[C@H]12)c1csc(N)n1 [Ceftriaxone]", "target_under_test": "intestinal flora", "reported_measurement": 14.7}
{"compound": "CC(C)(O/N=C(\\C(=O)N[C@@H]1C(=O)N2C(C(=O)[O-])=C(C[n+]3ccccc3)CS[C@H]12)c1csc(N)n1)C(=O)O [Ceftazidime]", "target_under_test": "intestinal flora", "reported_measurement": 20.9}

* * *

# experiment: Pharmacokinetics of model antibiotics in mice: tail vein injection vs subcutaneous administration combined with recombinant human HAase
# condition_description: male, ICR, mouse, blood, iv, Cmax, ICR male mice; administration by injection via tail vein; single dose 100-200 mg/kg

{"molecule": "C[C@@H](O)[C@H]1C(=O)N2C(C(=O)O)=C(S[C@@H]3CN[C@H](C(=O)Nc4cccc(C(=O)O)c4)C3)[C@H](C)[C@H]12 [Ertapenem]", "reading_unit": "µg/mL", "Cmax": 368}

* * *

Below, each of the compounds is paired with its reported Relative abundance of OUT (operational taxonomic units) value.
# System: intestinal flora
# experiment: Effects of administration routes on the diversity of intestinal flora in mice (16S rDNA sequencing, OTU)
# Assay type: in vivo
# condition_description: C57BL/6 mice, feces; oral administration for five consecutive days; D1 after administration
endpoint_name: Relative abundance of OUT (operational taxonomic units) (%)

{"compound_structure_string": "CC(C)(O/N=C(\\C(=O)N[C@@H]1C(=O)N2C(C(=O)[O-])=C(C[n+]3ccccc3)CS[C@H]12)c1csc(N)n1)C(=O)O", "reported_measurement": 22.8}
{"compound_structure_string": "CC1=C(C(=O)O)N2C(=O)[C@@H](NC(=O)[C@H](N)C3=CCC=CC3)[C@H]2SC1", "reported_measurement": 24.4}
{"compound_structure_string": "CO/N=C(\\C(=O)N[C@@H]1C(=O)N2C(C(=O)O)=C(CSc3nc(=O)c(=O)[nH]n3C)CS[C@H]12)c1csc(N)n1", "reported_measurement": 16.8}
{"compound_structure_string": "C[C@@H](O)[C@H]1C(=O)N2C(C(=O)O)=C(S[C@@H]3CN[C@H](C(=O)Nc4cccc(C(=O)O)c4)C3)[C@H](C)[C@H]12", "reported_measurement": 16.2}

* * *

# Test system: intestinal flora
# experiment: Effects of administration routes on the diversity of intestinal flora in mice (16S rDNA sequencing, OTU)
# Type: in vivo
# condition_description: C57BL/6 mice, feces; oral administration for five consecutive days; D3
endpoint_name: Relative abundance of OUT (operational taxonomic units) (%)

{"compound_structure_string": "CC1=C(C(=O)O)N2C(=O)[C@@H](NC(=O)[C@H](N)C3=CCC=CC3)[C@H]2SC1", "reported_measurement": 20.4}
{"compound_structure_string": "C[C@@H](O)[C@H]1C(=O)N2C(C(=O)O)=C(S[C@@H]3CN[C@H](C(=O)Nc4cccc(C(=O)O)c4)C3)[C@H](C)[C@H]12", "reported_measurement": 10.4}
{"compound_structure_string": "CC(C)(O/N=C(\\C(=O)N[C@@H]1C(=O)N2C(C(=O)[O-])=C(C[n+]3ccccc3)CS[C@H]12)c1csc(N)n1)C(=O)O", "reported_measurement": 20.4}
{"compound_structure_string": "CO/N=C(\\C(=O)N[C@@H]1C(=O)N2C(C(=O)O)=C(CSc3nc(=O)c(=O)[nH]n3C)CS[C@H]12)c1csc(N)n1", "reported_measurement": 10.4}

* * *

# Relative abundance of OUT (operational taxonomic units) per entry
# Tested on: intestinal flora
# experiment: Effects of administration routes on the diversity of intestinal flora in mice (16S rDNA sequencing, OTU)
# Assay type: in vivo
# condition_description: C57BL/6 mice, feces; in combination with recombinant human HAase for subcutaneous administration, five consecutive days; D6
# Description: 12 SPF grade C57BL/6 mice were used for each antibiotic mode, and divided into two groups, each having 6 mice. The two groups include an oral administration group, and a subcutaneous administration group combined with recombinant human HAase. A blank control group including 6 mice was also set. […] After DNA extraction, PCR amplification and gene sequencing, the changes of intestinal bacterial diversity in each group of mice were analyzed. […]
endpoint_name: Relative abundance of OUT (operational taxonomic units)

{"molecule": "CC1=C(C(=O)O)N2C(=O)[C@@H](NC(=O)[C@H](N)C3=CCC=CC3)[C@H]2SC1 [Cefradine]", "target_under_test": "intestinal flora", "reported_measurement": "37.1%"}
{"molecule": "CO/N=C(\\C(=O)N[C@@H]1C(=O)N2C(C(=O)O)=C(CSc3nc(=O)c(=O)[nH]n3C)CS[C@H]12)c1csc(N)n1 [Ceftriaxone]", "target_under_test": "intestinal flora", "reported_measurement": "33.2%"}
{"molecule": "CC(C)(O/N=C(\\C(=O)N[C@@H]1C(=O)N2C(C(=O)[O-])=C(C[n+]3ccccc3)CS[C@H]12)c1csc(N)n1)C(=O)O [Ceftazidime]", "target_under_test": "intestinal flora", "reported_measurement": "35.1%"}
{"molecule": "C[C@@H](O)[C@H]1C(=O)N2C(C(=O)O)=C(S[C@@H]3CN[C@H](C(=O)Nc4cccc(C(=O)O)c4)C3)[C@H](C)[C@H]12 [Ertapenem]", "target_under_test": "intestinal flora", "reported_measurement": "33.2%"}
